Target: IKKε (Homo sapiens, UniProt Q14164)
Sequence (Q14164 1-716): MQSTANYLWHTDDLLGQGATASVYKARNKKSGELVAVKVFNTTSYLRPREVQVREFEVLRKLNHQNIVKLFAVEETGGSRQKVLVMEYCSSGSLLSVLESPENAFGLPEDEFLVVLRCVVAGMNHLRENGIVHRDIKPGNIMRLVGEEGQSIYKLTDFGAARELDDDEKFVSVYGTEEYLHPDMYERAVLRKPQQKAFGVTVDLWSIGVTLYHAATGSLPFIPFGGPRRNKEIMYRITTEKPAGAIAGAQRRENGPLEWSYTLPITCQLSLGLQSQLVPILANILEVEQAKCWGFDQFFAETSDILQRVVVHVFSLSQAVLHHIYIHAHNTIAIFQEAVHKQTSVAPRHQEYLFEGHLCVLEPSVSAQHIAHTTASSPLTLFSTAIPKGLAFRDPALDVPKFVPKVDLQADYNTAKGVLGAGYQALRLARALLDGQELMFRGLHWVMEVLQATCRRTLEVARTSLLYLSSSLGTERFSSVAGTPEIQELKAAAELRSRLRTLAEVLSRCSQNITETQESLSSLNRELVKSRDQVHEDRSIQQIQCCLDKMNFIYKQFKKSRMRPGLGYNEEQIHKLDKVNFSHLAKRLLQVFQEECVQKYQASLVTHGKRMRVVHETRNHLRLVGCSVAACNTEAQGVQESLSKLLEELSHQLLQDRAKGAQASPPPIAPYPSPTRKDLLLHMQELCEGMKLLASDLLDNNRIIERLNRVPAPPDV
Parameter pIC50: see the listing below.
Just so you know, pIC50 here is -log10 of the concentration in molar units; reply with that number alone.

Some compounds with recorded pIC50:
NS(=O)(=O)c1cccc(-c2cnc3[nH]cc(C4=CCN(C(=O)OC5CCCC5)CC4)c3c2)c1 [Example 145]; 6.92
CC(C)NC(=O)N1CC=C(c2c[nH]c3ncc(-c4ccc(CN5CCN(C)CC5)o4)cc23)CC1 [Example 35]; 6.96
CC(C)NC(=O)N1C2C=C(c3c[nH]c4ncc(-c5ccc(CN6CCOCC6)s5)cc34)CC1CCC2 (centres unmarked) [Example 118]; 6.21
CC1C=C(c2c[nH]c3ncc(-c4ccc(CN5CCOCC5)s4)cc23)CCN1C(=O)NC1CCCC1 (centres unmarked) [Example 106]; 8.33
CN1CCN(Cc2ccc(-c3cnc4[nH]cc(C5=CCN(C(=O)NC6COC6)CC5)c4c3)s2)CC1 [Example 79]; 7.55
CC(=O)Nc1ccc(-c2cnc3[nH]cc(C4=CCN(C(=O)NC(C)C)CC4)c3c2)cc1 [Example 17]; 7.68
COc1ccc(-c2cnc3[nH]cc(C4=CCN(C(=O)NC(C)C)CC4)c3c2)cc1OC [Example 18]; 7.35

Here is the next item to consider.
Could you tell me which pIC50 is on file for CCN1CCN(Cc2cccc(-c3cnc4[nH]cc(C5=CCN(C(=O)NC(C)C)CC5)c4c3)c2)CC1 [Example 24] ?
7.39

###

Target: UniProt:Q9UHD2
Sequence (Q9UHD2 whole entry): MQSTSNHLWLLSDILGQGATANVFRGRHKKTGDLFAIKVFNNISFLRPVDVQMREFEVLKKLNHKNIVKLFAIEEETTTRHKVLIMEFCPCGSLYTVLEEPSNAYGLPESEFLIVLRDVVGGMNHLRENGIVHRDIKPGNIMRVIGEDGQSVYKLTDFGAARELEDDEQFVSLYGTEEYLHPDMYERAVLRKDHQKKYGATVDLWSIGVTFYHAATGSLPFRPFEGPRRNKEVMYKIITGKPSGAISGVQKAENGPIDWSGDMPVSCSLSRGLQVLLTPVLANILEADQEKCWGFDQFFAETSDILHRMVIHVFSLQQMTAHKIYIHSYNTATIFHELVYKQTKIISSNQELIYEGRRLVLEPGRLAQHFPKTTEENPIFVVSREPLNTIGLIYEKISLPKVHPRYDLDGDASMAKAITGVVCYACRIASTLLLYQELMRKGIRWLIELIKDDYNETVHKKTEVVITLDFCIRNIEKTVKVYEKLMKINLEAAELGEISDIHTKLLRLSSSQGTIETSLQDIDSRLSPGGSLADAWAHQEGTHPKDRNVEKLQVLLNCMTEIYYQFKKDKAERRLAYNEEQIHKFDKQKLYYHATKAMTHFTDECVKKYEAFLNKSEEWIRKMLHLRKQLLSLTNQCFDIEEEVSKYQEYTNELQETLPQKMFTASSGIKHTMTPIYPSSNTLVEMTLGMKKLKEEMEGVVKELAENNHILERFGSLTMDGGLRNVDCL
pIC50: −log10 of the molar value.
Classify by pIC50. Ranges: zone 1 (below 6), zone 2 (6 to below 8), zone 3 (8 or more)

Example cases with answers are listed next.
CS(=O)(=O)Nc1cccc(-c2cnc3[nH]cc(C4=CCN(C(=O)c5cccs5)CC4)c3c2)c1 [Example 201]; zone 1
NS(=O)(=O)c1ccc(-c2cnc3[nH]cc(C4=CCN(C(=O)c5cccs5)CC4)c3c2)cc1 [Example 197]; zone 2
CC1C=C(c2c[nH]c3ncc(-c4ccc(CN5CCN(C)CC5)s4)cc23)CCN1C(=O)NC1CCCC1 (racemic) [Example 107]; zone 3
CC1CN(C(=O)NC2CCCC2)CC=C1c1c[nH]c2ncc(-c3ccc(S(N)(=O)=O)cc3)cc12 (stereo not shown) [Example 124]; zone 2
CC(=O)Nc1ccc(N)c(-c2cnc3[nH]cc(C4=CCN(C(=O)NC5CCCC5)CC4)c3c2)c1 [Example 65]; zone 1

Hey, which category is CCS(=O)(=O)c1cccc(-c2cnc3[nH]cc(C4=CCN(C(=O)OC5CCCC5)CC4)c3c2)c1 [Example 174] in, do you know?
zone 2

Hey, which category is CC(C)NC(=O)N1CC=C(c2c[nH]c3ncc(-c4ccccc4)cc23)CC1 [Example 11] in, do you know?
zone 2

Hey, which category is CCN1CC=C(c2c[nH]c3ncc(-c4ccc(CN5CCOCC5)s4)cc23)CC1 [Example 6] in, do you know?
zone 1

Hey, which category is CC(C)NC(=O)N1CCC(c2c[nH]c3ncc(-c4ccc(CN5CCN(C)CC5)s4)cc23)=CC1C (stereo not shown) [Example 88] in, do you know?
zone 3
